# system_name: Cdk9/cyclinT1 (Homo sapiens, UniProt P50750)
# Sequence (P50750 whole entry): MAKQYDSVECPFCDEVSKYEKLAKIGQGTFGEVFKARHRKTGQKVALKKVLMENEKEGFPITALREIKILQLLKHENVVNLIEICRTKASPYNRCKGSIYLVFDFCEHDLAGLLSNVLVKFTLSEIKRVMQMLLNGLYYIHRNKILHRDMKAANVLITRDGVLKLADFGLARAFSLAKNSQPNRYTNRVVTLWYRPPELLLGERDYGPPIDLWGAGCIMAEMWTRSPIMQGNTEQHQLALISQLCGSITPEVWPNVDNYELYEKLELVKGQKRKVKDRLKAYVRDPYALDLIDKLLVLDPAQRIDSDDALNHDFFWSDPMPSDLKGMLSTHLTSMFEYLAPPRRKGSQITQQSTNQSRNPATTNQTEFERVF
# Sequence (O60563 whole entry partner): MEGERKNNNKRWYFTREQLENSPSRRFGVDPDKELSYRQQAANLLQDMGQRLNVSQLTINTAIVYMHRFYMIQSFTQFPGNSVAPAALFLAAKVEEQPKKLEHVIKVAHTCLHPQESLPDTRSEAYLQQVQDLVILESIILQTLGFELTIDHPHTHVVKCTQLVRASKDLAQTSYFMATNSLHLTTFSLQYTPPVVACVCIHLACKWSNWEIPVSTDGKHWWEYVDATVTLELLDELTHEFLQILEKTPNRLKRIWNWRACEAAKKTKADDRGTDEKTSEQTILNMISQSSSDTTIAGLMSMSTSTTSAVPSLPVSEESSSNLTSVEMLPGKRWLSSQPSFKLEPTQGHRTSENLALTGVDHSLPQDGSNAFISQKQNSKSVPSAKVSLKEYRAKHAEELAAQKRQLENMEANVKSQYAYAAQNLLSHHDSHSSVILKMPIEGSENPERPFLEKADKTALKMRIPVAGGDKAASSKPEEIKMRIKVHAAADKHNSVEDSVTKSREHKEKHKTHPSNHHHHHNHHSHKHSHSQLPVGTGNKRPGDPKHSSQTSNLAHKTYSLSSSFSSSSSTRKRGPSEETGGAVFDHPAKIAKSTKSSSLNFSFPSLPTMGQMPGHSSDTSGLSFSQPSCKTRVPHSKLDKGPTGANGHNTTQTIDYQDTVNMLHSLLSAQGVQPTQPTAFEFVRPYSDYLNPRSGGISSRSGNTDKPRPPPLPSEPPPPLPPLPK
# experimental_details: Cdk9/cyclinT1 Alpha Screen protocol
# Type: biochemical
# Parameters: Full length wild type Cdk9/cyclin T1 is purchased from Invitrogen; purchased Invitrogen PV4131
# assay_conditions: neutral species; individual determinations; read-out: CDK9_cyclinT1_AS2_IC50
pIC50: −log10 of the molar value.
endpoint: pIC50

Solved entries (count: 4):
N#CC1(CNc2cccc(-c3cc(N[C@H]4CC[C@H](NCC5(O)CC5)CC4)ncc3Cl)n2)CCOCC1 = 9.32
COC[C@H](C)N[C@H]1CC[C@H](Nc2cc(-c3cncc(OCC4(C#N)CCOCC4)n3)c(F)cn2)CC1 = 9.00
CC(C)(O)CN[C@H]1CC[C@H](Nc2cc(-c3cccc(NCC4(C#N)CCOCC4)n3)c(Cl)cn2)CC1 = 9.32
CO[C@H]1CCN([C@H]2CC[C@H](Nc3cc(-c4cccc(NCC5(C#N)CCOCC5)n4)c(F)cn3)CC2)C1 = 9.08

P = CC(C)(C)OCCN[C@H]1CC[C@H](Nc2cc(-c3cccc(NCC4(C#N)CCOCC4)n3)c(F)cn2)CC1
Q = N#CC1(COc2cncc(-c3cc(NC4CCCNCC4)ncc3Cl)n2)CCOCC1 (stereo not shown)
// which entry reports the smaller pIC50, P or Q ? Pick one and reply with its label.
Q

----------
# system_name: Cdk9/cyclinT1 (Homo sapiens)
# experimental_details: Cdk9/cyclinT1 IMAP protocol (fluorescence polarization)
# assay_conditions: IC-50, CDK9; lower limit of assay 0.0005 micromolar
pIC50: −log10 of the molar value.
endpoint: pIC50

COC[C@]1(O)CC[C@@H](Nc2cc(-c3cccc(NCC4(C#N)CCOCC4)n3)c(Cl)cn2)CC1 = 8.96
N#CC1(CNc2cccc(-c3cc(N[C@H]4CC[C@H](CNc5nc6ccccc6o5)CC4)ncc3Cl)n2)CCOCC1 = 9.00

----------
# system_name: Cdk9/cyclinT1 (Homo sapiens, UniProt P50750)
# experimental_details: Cdk9/cyclinT1 Alpha Screen protocol
# Format: biochemical
# Parameters: Full length wild type Cdk9/cyclin T1 is purchased from Invitrogen; purchased Invitrogen PV4131
# assay_conditions: neutral species; individual determinations; read-out: CDK9_cyclinT1_AS2_IC50
endpoint: IC50 (nM)

COC[C@@H](C)N[C@H]1CC[C@H](Nc2cc(-c3cncc(OCC4(C#N)CCOCC4)n3)c(Cl)cn2)CC1 [Compound 552] = 1.12
COCCN[C@H]1CC[C@H](Nc2cc(-c3cncc(OCC4(C#N)CCOCC4)n3)c(F)cn2)CC1 [Compound 559] = 0.512
[2H]C([2H])([2H])OC[C@H](C)N[C@H]1CC[C@H](Nc2cc(-c3cncc(OCC4(C#N)CCOCC4)n3)c(Cl)cn2)CC1 [Compound 598] = 1
C[C@H](N[C@H]1CC[C@H](Nc2cc(-c3cccc(NCC4(C#N)CCOCC4)n3)c(Cl)cn2)CC1)[C@@H](C)O [Compound 531] = 0.471

a = N#CC1(CNc2cccc(-c3cc(N[C@H]4CC[C@@H](NC5CC(F)(F)C5)CC4)ncc3Cl)n2)CCOCC1 [Compound 564]
b = CC(C)(O)CN[C@H]1CC[C@H](Nc2cc(-c3cccc(NCC4(C#N)CCOCC4)n3)c(F)cn2)CC1 [Compound 522]
c = C[C@H](CO)N[C@H]1CC[C@@H](Nc2cc(-c3cncc(OCC4(C#N)CCOCC4)n3)c(F)cn2)CC1 [Compound 593]
// sort entries: IC50, high to low Response field: labels, in requested order.
c, a, b
(c: 25 nM, a: 9.54 nM, b: 0.421 nM)

a = N#CC1(COc2cncc(-c3cc(N[C@H]4CC[C@@H](N5CCCOCC5)CC4)ncc3Cl)n2)CCOCC1 [Compound 549]
b = CO[C@H]1CCN([C@H]2CC[C@@H](Nc3cc(-c4cccc(NCC5(C#N)CCOCC5)n4)c(F)cn3)CC2)C1 [Compound 517]
Consider entries a and b . Which has the numerically lower IC50? Give the chosen item's label as your response.
b

A = COC[C@@H](C)N(O)[C@H]1CC[C@H](Nc2cc(-c3cncc(OCC4(C#N)CCOCC4)n3)c(Cl)cn2)CC1 [Compound 581]
B = COCCN[C@H]1CC[C@H](Nc2cc(-c3cncc(OCC4(C#N)CC4)n3)c(F)cn2)CC1 [Compound 556]
Would you kindly point out which of A and B has the smaller IC50 figure? Write down the label of the entry you select.
B
(B: 0.628 nM, A: 1 nM)

----------
# system_name: Cdk9/cyclinT1 (Homo sapiens)
# experimental_details: Cdk9/cyclinT1 Alpha Screen protocol
# Type: biochemical
# Set-up: Full length wild type Cdk9/cyclin T1 is purchased from Invitrogen; purchased Invitrogen PV4131
# assay_conditions: neutral species; individual determinations; read-out: CDK9_cyclinT1_AS2_IC50
pIC50: −log10 of the molar value.
endpoint: pIC50

COC[C@H](C)N[C@H]1CC[C@H](Nc2cc(-c3cncc(OCC4(C#N)CCOCC4)n3)c(Cl)cn2)CC1 = 9.00

P = N#CC1(COc2cncc(-c3cc(N[C@H]4CC[C@H](NC[C@H](O)C(F)(F)F)CC4)ncc3Cl)n2)CCOCC1
Q = N#CC1(CNc2cccc(-c3cc(N[C@H]4CC[C@@H](NCC5(O)CC5)CC4)ncc3Cl)n2)CCOCC1
Compare P and Q by numeric pIC50 and name the larger one. # respond with the chosen item's label
P
(P: 9.35, Q: 8.19)

----------
# system_name: Cdk9/cyclinT1 (Homo sapiens, UniProt P50750)
# experimental_details: Cdk9/cyclinT1 IMAP protocol (fluorescence polarization)
# assay_conditions: IC-50, CDK9; lower limit of assay 0.0005 micromolar
endpoint: IC50 (nM)

Field: example entries. Status: answers known.
N#CC1(CNc2cccc(-c3cc(N[C@H]4CC[C@H](N5CCCOCC5)CC4)ncc3Cl)n2)CCOCC1 = 0.6
CN(C)C(=O)CN(CC(=O)N(C)C)[C@H]1CC[C@H](Nc2cc(-c3cccc(NCC4(C#N)CCOCC4)n3)c(Cl)cn2)CC1 = 2.7
N[C@H]1CC[C@H](Nc2cc(-c3cccc(NCC4(O)CCOCC4)n3)c(Cl)cn2)CC1 = 1.5
CCOC(=O)C(C)(C)N[C@H]1CC[C@H](Nc2cc(-c3cccc(NCC4(C#N)CCOCC4)n3)c(Cl)cn2)CC1 = 0.7
COC[C@]1(O)CC[C@@H](Nc2cc(-c3cccc(NCC4CCOCC4)n3)c(Cl)cn2)CC1 = 42

A = N#CC1(CNc2cccc(-c3cc(N[C@@H]4CC[C@@H](NC5CCOC5)C4)ncc3Cl)n2)CCOCC1 (stereo partly drawn)
B = C[C@H]1COCCN1[C@H]1CC[C@H](Nc2cc(-c3cccc(NCC4(C#N)CCOCC4)n3)c(Cl)cn2)CC1
Please indicate which has the smaller reported IC50: A , or B . Indicate which entry you chose by stating its label.
A
(A: 1.8 nM, B: 2.9 nM)

----------
# system_name: Cdk9/cyclinT1 (Homo sapiens)
# experimental_details: Cdk9/cyclinT1 IMAP protocol (fluorescence polarization)
# assay_conditions: IC-50, CDK9; lower limit of assay 0.0005 micromolar
endpoint: IC50 (pM)

CO[C@H]1CCN([C@H]2CC[C@H](Nc3cc(-c4cccc(NCC5(C#N)CCOCC5)n4)c(Cl)cn3)CC2)C1 [Compound 475] = 600
CC1(CN[C@H]2CC[C@H](Nc3cc(-c4cccc(NCC5(C#N)CCOCC5)n4)c(Cl)cn3)CC2)COC1 [Compound 430] = 1000
N#CCCN[C@H]1CC[C@H](Nc2cc(-c3cccc(NCC4CCOCC4)n3)c(Cl)cn2)CC1 [Compound 444] = 2400
CN(C)C(=O)NC[C@H]1CC[C@H](Nc2cc(-c3cccc(NCC4(C#N)CCOCC4)n3)c(Cl)cn2)CC1 [Compound 499] = 600

P = N#CC1(CNc2cccc(-c3cc(NC4CCNCC4)ncc3Cl)n2)CCOCC1 [Example 402]
Q = N#CC1(CNc2cccc(-c3cc(N[C@H]4CC[C@H](N5CCNC(=O)C5)CC4)ncc3Cl)n2)CCOCC1 [Compound 417]
Identify the entry with the larger IC50. Options: P and Q Reply with the label of the item you choose.
P
(P: 4800 pM, Q: 1300 pM)

----------
# system_name: Cdk9/cyclinT1 (Homo sapiens, UniProt P50750)
# experimental_details: Cdk9/cyclinT1 Alpha Screen protocol
# Assay type: biochemical
# Design: Full length wild type Cdk9/cyclin T1 is purchased from Invitrogen; purchased Invitrogen PV4131
# assay_conditions: neutral species; individual determinations; read-out: CDK9_cyclinT1_AS2_IC50
pIC50: −log10 of the molar value.
endpoint: pIC50

C[C@H](O)CN[C@H]1CC[C@H](Nc2cc(-c3cccc(NCC4(C#N)CCOCC4)n3)c(Cl)cn2)CC1 = 9.40

A = CO[C@H]1CCN([C@H]2CC[C@@H](Nc3cc(-c4cccc(NCC5(C#N)CCOCC5)n4)c(Cl)cn3)CC2)C1
B = N#CC1(COc2cncc(-c3cc(N[C@H]4CC[C@H](N5CCCOCC5)CC4)ncc3Cl)n2)CCOCC1
Field: lower recorded pIC50 (choose A or B ) Label of pick, please.
A
